Measured pKi, listed per entry for reference.
tested_target: UniProt P30542
Sequence (P30542 whole entry): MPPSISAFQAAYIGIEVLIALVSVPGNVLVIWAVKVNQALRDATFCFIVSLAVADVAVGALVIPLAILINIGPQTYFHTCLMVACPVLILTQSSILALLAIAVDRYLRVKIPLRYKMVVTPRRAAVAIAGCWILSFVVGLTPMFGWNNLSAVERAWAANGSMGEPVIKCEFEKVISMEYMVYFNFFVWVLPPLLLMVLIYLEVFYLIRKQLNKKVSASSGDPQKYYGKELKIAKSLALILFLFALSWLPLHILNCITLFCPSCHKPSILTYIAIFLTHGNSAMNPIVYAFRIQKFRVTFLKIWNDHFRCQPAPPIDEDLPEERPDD
// pKi is dimensionless: -log10 of concentration (M)

q: Print UniProt P30542 pKi for COc1ccc(-c2nc3c4cn(C)nc4nc(N)n3n2)cc1 .
a: 5.01

q: Print UniProt P30542 pKi for Cn1cc2c(nc(NC(=O)Cc3ccccc3)n3nc(-c4ccc(Br)cc4)nc23)n1 .
a: 4.61

q: Print UniProt P30542 pKi for Cn1cc2c(nc(NC(=O)Cc3ccccc3)n3nc(-c4ccc(F)cc4)nc23)n1 .
a: 5.64

q: Print UniProt P30542 pKi for Cn1cc2c(nc(NC(=O)c3ccccc3)n3nc(-c4ccc(F)cc4)nc23)n1 .
a: 5.60

q: Print UniProt P30542 pKi for Cn1cc2c(nc(NC(=O)c3ccccc3)n3nc(-c4ccccc4)nc23)n1 .
a: 6.21

q: Print UniProt P30542 pKi for Cn1cc2c(nc(NC(=O)Cc3ccccc3)n3nc(-c4ccc(Cl)cc4)nc23)n1 .
a: 5.31
